As shown below, each of these compounds has a reported pH value.
Run description: Confirmation of complex formation with single chelants, Cu2+ ions
Type: physicochemical
Test conditions: Cu^2+ solution 0,2 mmol/L with single chelant
// return just the number, without any unit appended

Task: Which pH value belongs to CC(C)(N)CO [Aminomethylpropanol] ?
Result: 9.2

Task: Cool, now Cc1cc(CC(C)CC(C)(C)C)n(O)c(=O)c1.NCCO (stereo not shown) [Piroctone Olamine]
Result: 8.3

Task: What would you report for NCC(=O)O [Glycine] ?
Result: 4.6

Task: Can you handle CN(C)C[C@H](O)[C@@H](O)[C@H](O)[C@H](O)CO [Dimethylglucamine, N,N-dimethylglucamine] next?
Result: 6.5

---

Run description: Confirmation of complex formation with single chelants, Fe3+ ions
Type: physicochemical
Test conditions: Fe^3+ solution 0,2 mmol/L with single chelant
Quantity kind: pH
Note: the reply should be a number with no unit written.

Examples from the recorded data:
{"Compound": "NCC(=O)O [Glycine]", "Test result": 3.3}
{"Compound": "CC(C)(N)CO [Aminomethylpropanol]", "Test result": 4.0}
{"Compound": "CN(C)C[C@H](O)[C@@H](O)[C@H](O)[C@H](O)CO [Dimethylglucamine, N,N-dimethylglucamine]", "Test result": 3.4}

Next:
Task: So what does the record say about pH for Cc1cc(CC(C)CC(C)(C)C)n(O)c(=O)c1.NCCO (stereo not shown) [Piroctone Olamine] ?
Result: 3.8
